- tgt: F508delCFTR (Homo sapiens, UniProt P13569, DEL508-508)
- Construct: expressed in transfected cells; host or cells: CFBE41o- human lung-derived epithelial cells (CFBE4lo-F508delCFTR-HRP), doxycycline-inducible
- Sequence (P13569 with tags, fused parts or gaps DEL508-508): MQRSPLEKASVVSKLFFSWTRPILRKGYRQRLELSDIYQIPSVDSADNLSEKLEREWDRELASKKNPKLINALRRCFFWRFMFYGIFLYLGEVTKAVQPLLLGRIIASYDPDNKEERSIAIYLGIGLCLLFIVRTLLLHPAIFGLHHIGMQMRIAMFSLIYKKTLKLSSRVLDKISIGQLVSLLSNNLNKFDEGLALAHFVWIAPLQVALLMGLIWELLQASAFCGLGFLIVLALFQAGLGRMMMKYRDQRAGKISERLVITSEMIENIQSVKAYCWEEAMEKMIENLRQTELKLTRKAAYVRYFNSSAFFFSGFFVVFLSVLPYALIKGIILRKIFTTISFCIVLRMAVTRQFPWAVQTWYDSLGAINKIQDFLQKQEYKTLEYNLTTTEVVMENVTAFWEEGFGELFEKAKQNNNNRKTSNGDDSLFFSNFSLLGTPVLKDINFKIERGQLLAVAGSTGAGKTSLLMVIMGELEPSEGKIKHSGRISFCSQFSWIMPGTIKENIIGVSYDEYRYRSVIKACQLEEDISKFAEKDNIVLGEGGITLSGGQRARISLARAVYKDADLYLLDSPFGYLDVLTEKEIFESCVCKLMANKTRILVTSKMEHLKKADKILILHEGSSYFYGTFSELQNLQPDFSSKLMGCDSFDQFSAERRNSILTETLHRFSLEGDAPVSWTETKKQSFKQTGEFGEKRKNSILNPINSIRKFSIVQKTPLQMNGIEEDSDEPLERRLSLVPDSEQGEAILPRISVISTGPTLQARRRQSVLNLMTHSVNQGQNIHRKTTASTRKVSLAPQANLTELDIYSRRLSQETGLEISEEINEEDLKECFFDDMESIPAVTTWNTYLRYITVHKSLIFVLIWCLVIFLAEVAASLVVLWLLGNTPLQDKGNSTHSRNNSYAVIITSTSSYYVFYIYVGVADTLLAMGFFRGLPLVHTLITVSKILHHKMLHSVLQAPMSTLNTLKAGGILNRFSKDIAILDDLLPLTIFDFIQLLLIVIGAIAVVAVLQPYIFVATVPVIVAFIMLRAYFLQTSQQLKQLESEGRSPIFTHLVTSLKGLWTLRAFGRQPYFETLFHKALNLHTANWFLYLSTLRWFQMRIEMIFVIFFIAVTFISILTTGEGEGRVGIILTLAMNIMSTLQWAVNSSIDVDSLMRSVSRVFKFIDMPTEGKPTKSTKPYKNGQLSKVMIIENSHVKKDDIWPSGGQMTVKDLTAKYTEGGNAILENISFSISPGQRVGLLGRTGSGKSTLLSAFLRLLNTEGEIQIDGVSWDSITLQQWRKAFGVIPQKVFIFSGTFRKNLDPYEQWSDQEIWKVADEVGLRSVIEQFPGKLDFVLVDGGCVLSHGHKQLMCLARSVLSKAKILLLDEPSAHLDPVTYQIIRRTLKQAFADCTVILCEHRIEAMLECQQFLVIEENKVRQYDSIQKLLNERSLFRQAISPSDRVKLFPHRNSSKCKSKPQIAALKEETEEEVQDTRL
- assay comment: Cell Surface Expression-Horse Radish Peroxidase (CSE-HRP) Assay
- Type: cell-based
- cond: test compound without co-corrector; read-out: EC50 (without co-corrector)
measured parameter: EC50

These recorded examples may help you get a feel for the data.
COc1cc(C(F)(F)F)cc(N[C@@H]2[C@@H](C(C)(C)C)[C@H](C(=O)O)N(C(=O)C3CCCCC3)[C@@H]2c2ccccc2)n1 (racemic) :: 1000 to 10000 nM
COc1ccc(C23CC(C2)C3)cc1CN[C@H]1[C@H](C(C)(C)C)[C@@H](C(=O)O)N(C(=O)[C@H]2CCCC(F)(F)C2)[C@H]1c1ccccc1 :: < 1000 nM
COc1ccc(C(C)(C)C)cc1CN[C@H]1[C@H](C(C)(C)C)[C@@H](C(=O)O)N(C(=O)C2CCC(F)(F)CC2)[C@H]1c1ccccc1 :: 1000 to 10000 nM
COc1ccc(C(C)(C)C)cc1CN[C@H]1[C@H](C(C)(C)C)[C@@H](C(=O)O)N(C(=O)C2CCCCC2)[C@H]1c1cccnc1OC :: 1000 to 10000 nM

In plain terms, COc1ccc(C(C)(C)C)cc1CN[C@H]1[C@H](C(C)(C)C)[C@@H](C(=O)O)N(C(=O)C2CCCCO2)[C@H]1c1ccccc1 (stereo partly drawn) [II-318] has a documented EC50 of 1000 to 10000 nM

In plain terms, `COc1ccc(C23CC(C2)C3)cc1CN[C@H]1[C@H](C(C)(C)C)[C@@H](C(=O)O)N(C(=O)[C@@H]2CCCC(F)(F)C2)[C@H]1c1ccccc1` has a documented EC50 of < 1000 nM

In plain terms, COc1ccc(C(C)(C)C)cc1CN[C@H]1[C@H](C(C)(C)C)[C@@H](C(=O)O)N(C(=O)C2(c3ccccc3)COc3ccccc32)[C@H]1c1ccccc1 (stereo partly drawn) has a documented EC50 of < 1000 nM

In plain terms, `COc1ccc(C(C)(C)C)cc1CN[C@H]1[C@H](C(C)(C)C)[C@@H](C(=O)O)N(C(=O)[C@@H](OC)c2ccc(F)c(F)c2)[C@H]1c1ccccc1` has a documented EC50 of 1000 to 10000 nM

In plain terms, `COc1ncc(C2CCC2)cc1CN[C@H]1[C@H](C(C)(C)OC)[C@@H](C(=O)O)N(C(=O)C2CCCCC2)[C@H]1c1ccccc1` has a documented EC50 of 1000 to 10000 nM

* * *

- tgt: F508delCFTR (Homo sapiens, UniProt P13569, DEL508-508)
- Construct: expressed in transfected cells; host or cells: CFBE41o- human lung-derived epithelial cells (CFBE4lo-F508delCFTR-HRP), doxycycline-inducible
- assay comment: Cell Surface Expression-Horse Radish Peroxidase (CSE-HRP) Assay
- Type: cell-based
- cond: test compound without co-corrector; read-out: EC50 (without co-corrector)
pEC50: −log10 of the molar value.
measured parameter: pEC50

These recorded examples may help you get a feel for the data.
COc1ccc(C(C)(C)C)cc1CN[C@H]1[C@H](C(C)(C)C)[C@@H](C(=O)O)N(C(=O)c2cc(C)n(C)n2)[C@H]1c1ccccc1 [II-445] :: 5.00 to 6.00
COCCS(=O)(=O)NC(=O)[C@H]1[C@H](C(C)(C)C)[C@@H](Nc2cc(C(F)(F)F)cc(C)n2)[C@@H](c2ccccc2)N1C(=O)C1CCCCC1 (racemic) [Example III-49] :: < 5.00

Now consider a different compound.
In plain terms, COc1ccc(C23CC(C2)C3)cc1CN[C@H]1[C@H](C(C)(C)C)[C@@H](C(=O)O)N(C(=O)C2CCCCC2)[C@H]1c1cccnc1OC [II-486] has a documented pEC50 of 5.00 to 6.00

* * *

- tgt: F508delCFTR (Homo sapiens, UniProt P13569, DEL508-508)
- Construct: expressed in transfected cells; host or cells: CFBE41o- human lung-derived epithelial cells (CFBE4lo-F508delCFTR-HRP), doxycycline-inducible
- assay comment: Cell Surface Expression-Horse Radish Peroxidase (CSE-HRP) Assay
- Type: cell-based
- cond: with co-corrector (2 μM of 3-[(2R,4R)-4-({[1-(2,2-difluoro-1,3-benzodioxol-5-yl)cyclopropyl]carbonyl}amino)-7-methoxy-3,4-dihydro-2H-chromen-2-yl]benzoic acid); read-out: EC50 (with co-corrector)
- Method: Cell Surface Expression-Horse Radish Peroxidase (CSE-HRP) Assay The development was achieved by expressing the F508delCFTR mutation along with a horseradish peroxidase (HRP) in the fourth exofacial loop, and then measuring the HRP activity using luminescence readout from these cells, CFBE4lo-F508delCFTR-HRP, that were incubated overnight with the test corrector compounds, either without or with the co-corrector. […] The raw counts from the experiment were analyzed using Accelrys® Assay Explorer v3.3. […]
pEC50: −log10 of the molar value.
Quick reference for pEC50 among some molecules

COc1ncc(C2CC2)cc1CN[C@H]1[C@H](C(C)(C)C)[C@@H](C(=O)O)N(C(=O)[C@@H]2CCCO2)[C@H]1c1ccccc1C(C)C :: > 6.00
COc1ccc(C(C)(C)C)cc1CN[C@H]1[C@H](C(C)(C)C)[C@@H](C(=O)O)N(C(=O)Cc2ccc(F)c(F)c2)[C@H]1c1ccccc1 :: > 6.00
COc1cc2c(cc1CN[C@H]1[C@H](C(C)(C)C)[C@@H](C(=O)O)N(C(=O)[C@@H]3CCCC(F)(F)C3)[C@H]1c1ccccc1)CCC2 :: > 6.00
CC(C)(C)[C@@H]1[C@@H](NCc2cc(F)ccc2S(C)(=O)=O)[C@@H](c2ccccc2)N(C(=O)C2CCCCC2)[C@H]1C(=O)O (racemic) :: 5.00 to 6.00
COc1ccc(C2(C)CCC2)cc1CN[C@H]1[C@H](C(C)(C)C)[C@@H](C(=O)O)N(C(=O)[C@@H]2CCCO2)[C@H]1c1ccccc1C(C)C :: > 6.00
CC(C)(C)[C@H]1[C@H](Nc2nc(Cl)c(F)cc2C#N)[C@H](c2ccccc2)N(C(=O)C2CCCCC2)[C@@H]1C(=O)O :: 5.00 to 6.00
COc1ccc(C(C)(C)C)cc1CN[C@H]1[C@H](C(C)(C)C)[C@@H](C(=O)O)N(C(=O)C2C3CCCC32)[C@H]1c1ccccc1 (stereo partly drawn) :: > 6.00
COc1ccc(C(C)(C)C)cc1CN[C@H]1[C@H](C(C)(C)C)[C@@H](C(=O)O)N(C(=O)[C@@H]2CCCC(F)(F)C2)[C@H]1c1ccccc1 :: > 6.00

In plain terms, `COc1ccc(C(C)(C)C)cc1CN[C@H]1[C@H](C(C)(C)C)[C@@H](C(=O)O)N(C(=O)[C@@H]2CCC[C@@](C)(O)C2)[C@H]1c1ccccc1` has a documented pEC50 of 5.00 to 6.00

In plain terms, COc1cccc([C@@H]2[C@H](NCc3ccc(Cl)cc3OC)[C@@H](C(C)(C)C)[C@H](C(=O)O)N2C(=O)C2CCCCC2)n1 (racemic) has a documented pEC50 of 5.00 to 6.00

In plain terms, `COc1ccc(C(C)(C)C)cc1CN[C@H]1[C@H](C(C)(C)C)[C@@H](C(=O)O)N(C(=O)OCc2ccccc2Cl)[C@H]1c1ccccc1` has a documented pEC50 of > 6.00

In plain terms, `COc1ccc(OC(F)(F)F)cc1CN[C@H]1[C@H](C(C)(C)C)[C@@H](C(=O)O)N(C(=O)OC(C)C)[C@H]1c1cccnc1N(C)C` has a documented pEC50 of 5.00 to 6.00

* * *

- tgt: F508delCFTR (Homo sapiens, UniProt P13569, DEL508-508)
- Construct: expressed in transfected cells; host or cells: CFBE41o- human lung-derived epithelial cells (CFBE4lo-F508delCFTR-HRP), doxycycline-inducible
- assay comment: Cell Surface Expression-Horse Radish Peroxidase (CSE-HRP) Assay
- Format: cell-based
- cond: CSE-HRP; with co-corrector (2 μM of 3-[(2R,4R)-4-({[1-(2,2-difluoro-1,3-benzodioxol-5-yl)cyclopropyl]carbonyl}amino)-7-methoxy-3,4-dihydro-2H-chromen-2-yl]benzoic acid); read-out: EC50 (with co-corrector)
Quick reference for EC50 among some compounds

COc1ccc(C(F)(F)F)cc1CN[C@H]1[C@H](C(C)(C)C)[C@@H](C(=O)O)N(C(=O)C2CCCO2)[C@H]1c1ccccc1 (mixture of isomers) :: 1000 to 10000 nM

In plain terms, `COc1ccc(-c2ccco2)cc1CN[C@H]1[C@H](C(C)(C)C)[C@@H](C(=O)O)N(C(=O)C2CCCCC2)[C@H]1c1ccccc1` has a documented EC50 of 1000 to 10000 nM

In plain terms, COc1ncc(C(F)(F)F)cc1N[C@@H]1[C@@H](C(C)(C)OC)[C@H](C(=O)O)N(C(=O)C2CCCCC2)[C@@H]1c1ccccc1 (racemic) has a documented EC50 of 1000 to 10000 nM

In plain terms, `COc1ccc(C(C)(C)C)cc1CN[C@H]1[C@H](C(C)(C)C)[C@@H](C(=O)O)N(C(=O)CN2CCCC2)[C@H]1c1ccccc1` has a documented EC50 of 1000 to 10000 nM

In plain terms, `COc1ccc(C(C)(C)C)cc1CN[C@H]1[C@H](C(C)(C)C)[C@@H](C(=O)O)N(C(=O)c2cc(Cl)c(=O)n(C(C)C)c2)[C@H]1c1ccccc1` has a documented EC50 of 1000 to 10000 nM

In plain terms, CC(C)Oc1ccccc1CN[C@@H]1[C@@H](C(C)(C)C)[C@H](C(=O)O)N(C(=O)C2CCCCC2)[C@@H]1c1ccccc1 (racemic) has a documented EC50 of 1000 to 10000 nM

In plain terms, `COc1ccc(C2(C)CCC2)cc1CN[C@H]1[C@H](C(C)(C)C)[C@@H](C(=O)O)N(C(=O)C2CCC2)[C@H]1c1ccccc1C(F)(F)F` has a documented EC50 of 1000 to 10000 nM

In plain terms, `COc1ccc(C(F)(F)F)cc1CN[C@H]1[C@H](C(C)(C)C)[C@@H](C(=O)O)N(S(=O)(=O)c2ccccc2)[C@H]1c1ccccc1` has a documented EC50 of 1000 to 10000 nM

In plain terms, CC(C)(C)[C@@H]1[C@@H](NCc2cc(Cl)ccc2OC(F)(F)F)[C@@H](c2ccccc2)N(C(=O)C2CCCCC2)[C@H]1C(=O)O (racemic) has a documented EC50 of 1000 to 10000 nM

In plain terms, COc1ccc(C(C)(C)C)cc1CN[C@H]1[C@H](C(C)(C)C)[C@@H](C(=O)O)N(C(=O)[C@@H]2OCC[C@@H]2C)[C@H]1c1ccccc1 (relative stereo) has a documented EC50 of 1000 to 10000 nM

In plain terms, CC(C)(C)[C@@H]1[C@@H](NCc2ccccc2C(F)(F)F)[C@@H](c2ccccc2)N(C(=O)C2CCCCC2)[C@H]1C(=O)O (racemic) has a documented EC50 of 1000 to 10000 nM

In plain terms, `COc1ncc(C(C)C)cc1CN[C@H]1[C@H](C(C)(C)C)[C@@H](C(=O)O)N(C(=O)C2CCCCC2)[C@H]1c1ccccc1` has a documented EC50 of < 1000 nM
